Where do the numbers come from? From PubChem BioAssay.

In this section we review reported composite z-score values for a set of molecules.
- assayText: probe aNOTCH3 binding on compound microarray – biochemical, small-molecule microarray, 635/667 nm fluorescence, primary screen (AID 1120);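 further: probe is a biotin-tagged antibody raised against NOTCH3 rather than NOTCH3 protein; score merges spot fluorescence near 667 nm with spot signal to noise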
- protocolConditions: higher = more signal

- molecule: "C=CC[C@@]1(C(=O)N2CCCCC2)N=C(c2ccc(OCCCO)cc2)O[C@@H]1c1ccccc1CN=[N+]=[N-]"
  composite z-score: 0.244
- molecule: "COCCCNC(=O)[C@@]1(CCS(=O)(=O)c2ccccc2)N=C(c2ccc(OCCCO)cc2)O[C@H]1c1ccccc1N=[N+]=[N-]"
  composite z-score: 0.307
- molecule: "COCCOC(=O)N1C(=O)[C@@]2(c3cc(C#Cc4ccc(OC)cc4)ccc31)[C@H](c1ccc(O)cc1)N1[C@H](c3ccccc3)[C@H](c3ccccc3)OC(=O)[C@H]1[C@@H]2C(=O)Nc1nc2ccccc2s1"
  composite z-score: -0.0299
- molecule: "O=C1N(CCS(=O)(=O)c2ccccc2)c2ccccc2[C@@H]2OC(c3ccc(OCCCO)cc3)=N[C@]12Cc1ccccc1"
  composite z-score: 0.126
- molecule: "C=C(CCCC)C(=O)CC[C@@H](OC(C)=O)c1ccc(CO)o1"
  composite z-score: -0.0581
- molecule: "Cc1c(NC(=O)/C(C#N)=C/c2cccc([N+](=O)[O-])c2)c(=O)n(-c2ccccc2)n1C"
  composite z-score: 0.0934
- molecule: "NC(=O)[C@@H]1[C@H]2C(=O)O[C@H](c3ccccc3)[C@H](c3ccccc3)N2[C@H](c2ccc(OCCO)cc2)[C@@]12C(=O)Nc1ccc(C#CC3=CCCCC3)cc12"
  composite z-score: -0.0665
- molecule: "CCOC(=O)[C@H]1C/C=C/C[C@H](C(=O)OCC)C(=O)O[C@H]2[C@@H](OC)O[C@H](CO)[C@@H](OC(=O)c3ccc(Br)cc3)[C@@H]2OC1=O"
  composite z-score: 0.037
- molecule: "[N-]=[N+]=NCc1ccccc1[C@@H]1OC(c2ccc(OCCCO)cc2)=N[C@]1(CCS(=O)(=O)c1ccccc1)C(=O)N1CCCCC1"
  composite z-score: 0.739
- molecule: "COc1ccccc1CN1C(=O)c2ccccc2[C@@H](C(=O)NCc2ccccc2)[C@@H]1c1ccc(CO)cc1"
  composite z-score: -0.293
- molecule: "O=C1[C@@]23C=C(Br)[C@H](C[C@@H]2COC3)[C@]12CO2"
  composite z-score: -0.0187
- molecule: "COc1ccc(C(=O)Nc2cccc(CN3C(=O)[C@]4(O[C@H](CCn5cc(CCO)nn5)[C@@H]([Si](C)(C)c5ccc(OC)cc5)[C@@H]4C)c4ccccc43)c2)cc1"
  composite z-score: 0.0066
- molecule: "COCCCNC(=O)[C@@H]1c2ccccc2C(=O)N(Cc2ccccc2)[C@H]1c1ccc(CO)cc1"
  composite z-score: 0.235
- molecule: "CC(=O)Nc1cc(Br)ccc1C(=O)NCc1ccccc1"
  composite z-score: -0.0311
- molecule: "CN1C(=O)C2C=CC(C(O)c3c(F)cccc3Cl)N(NC(=O)OC(C)(C)C)C2C1=O (configuration not stated)"
  composite z-score: -0.0362
- molecule: "CCCC[C@H]1C[C@@H]1[C@@H]1N(P(=O)(c2ccccc2)c2ccccc2)C[C@@](O)(c2ccccc2)CC12CC2"
  composite z-score: 0.169
- molecule: "CCOC(=O)C[C@H]1[C@H](OC(=O)c2cc3ccccc3oc2=O)[C@@H](NC(=O)CC(C)C)c2cc(OCCCO)ccc2N1C(=O)c1ccccc1"
  composite z-score: -0.0044
- molecule: "C#CCNCc1ccccc1"
  composite z-score: -0.201
- molecule: "C=C(/C(=C/C[C@H](OC(=O)c1ccncc1)c1ccc(OCCO)cc1)c1cc(C(=O)OC)ccc1OC)C(C)C"
  composite z-score: -0.0362
- molecule: "CCCCCN1CC=CC23O[C@@H]4C=CCOC(=O)[C@@H]4[C@H]2C(=O)N(C(C)CO)[C@@H]3C1=O (some centres not stated)"
  composite z-score: -0.403
- molecule: "C=C[C@H](C)[C@@H](OC(=O)Nc1ccc(SC)cc1)c1ccc(O)c2ccccc12"
  composite z-score: 0.0636
- molecule: "COC(=O)c1c(CC[C@@H](CO)NC(=O)NCCc2c[nH]c3ccccc23)oc(C(=O)Cc2ccccc2)c1C(=O)OC"
  composite z-score: 0.0842
- molecule: "OCC1C=C(/C=C/c2ccccc2)CN1Cc1ccccc1Br (configuration not stated)"
  composite z-score: 0.0694
- molecule: "C[C@H]1C2[C@H](Cc3ccccc3)NC(=O)[C@]23C(=O)NCC(=O)N2CCC[C@H]2C(=O)NC/C=C/CCC/C=C/C3[C@@H]2O[C@]12C (some centres not stated)"
  composite z-score: -0.136
- molecule: "C=C(C(=O)CC[C@H](OC(C)=O)c1ccccc1OCCO)C(C)C"
  composite z-score: 0.029
- molecule: "CCOc1cc(C(O)C2C=CC3C(=O)N(c4ccccc4)C(=O)C3N2Nc2ccc(C(C)C)cc2)ccc1O (configuration not stated)"
  composite z-score: 0.15
- molecule: "C=C(CCCC)/C(=C/C[C@@H](OC(C)=O)c1ccccc1OCCO)c1cc(C(=O)OC)ccc1OC"
  composite z-score: -0.0947
- molecule: "CCCCC(O)C1C=CC2C(=O)N(C)C(=O)C2N1N1CCCCC1 (configuration not stated)"
  composite z-score: 0.291
- molecule: "[N-]=[N+]=Nc1ccccc1[C@H]1OC(c2ccc(OCCCO)cc2)=N[C@@]1(Cc1ccccc1)C(=O)N1CCOCC1"
  composite z-score: 0.223
- molecule: "C=CCN1Cc2ccccc2[C@@H]2OC(c3ccc(OCCCO)cc3)=N[C@]2(CCS(=O)(=O)c2ccccc2)C1=O"
  composite z-score: 0.233
- molecule: "CC(=O)NCCCC[C@@H]1NC(=O)[C@H]2C[C@@H](C(=O)NCCCCCNC(=O)CS)[C@@H](c3ccc(O)cc3)N2C1=O"
  composite z-score: -0.136
- molecule: "C=CC1c2cc(O)c(OC)cc2CCN1Cc1cccc(OC(F)(F)F)c1 (configuration not stated)"
  composite z-score: -0.0596
